Tested on: HOP-92 NSCLC
Assay: NCI-60 one-dose screen, 48 h (100 = growth as untreated, 0 = no growth, -100 = all killed)
Settings: 10 µM unless noted
The panel holds about 83,000 compounds, 20% with a hit somewhere; the sample as a whole holds those more often.
QUANTITY: growth (%)

[[record]]
compound = "Cn1cc(-c2nn3cc(-c4ccccc4)nc3s2)c2ccccc21"
measured_number = 71.9

[[record]]
compound = "CCCC(O)Cn1ncc(C(=O)OCC)c1NC(=O)NCc1cccc(F)c1 (stereo not drawn)"
measured_number = 71.3

[[record]]
compound = "O=C1CCC(C(=O)NN(c2ccccc2)c2ccccc2)N1 (stereo not drawn)"
measured_number = 69.6


----------
Tested on: LOX IMVI melanoma
Assay: NCI-60 one-dose screen, 48 h
Details: 10 µM unless noted
Compounds without any hit were thinned out: in the full panel of roughly 83,000, 20% have a hit. The source made the active and inactive calls. The calls were made as follows: active = growth percent below 10; inactive = the rest.
Outcome codes: Y for active, N for inactive

[[record]]
compound = "COc1ccc2c(c1)c(-c1ccc(-c3cn(C)c4ccc(OC)cc34)[nH]1)cn2C"
label = "Y"

[[record]]
compound = "O=C1/C(=C/c2ccc(Br)cc2)COc2ccc(O)c(O)c21"
label = "Y"

[[record]]
compound = "COc1cc(C(=O)C(=O)c2cc(OC)c(O)c(OC)c2)cc(OC)c1O"
label = "N"

[[record]]
compound = "Nc1c(C(=O)Nc2cccc3ncccc23)sc2nc3c(cc12)C(=O)CCC3"
label = "N"

[[record]]
compound = "Cc1cc2nc3c4ccccc4n(CCN(C)C)c3nc2cc1C"
label = "Y"

[[record]]
compound = "Cc1ccc(O)c(NC(=O)c2ccc(CNc3ccnc(C(F)(F)F)c3)cc2)c1"
label = "N"

[[record]]
compound = "Cc1ccc2[nH]c(=O)c3c(c2c1)OC(N)=C(C#N)C31C(=O)c2cccc3cccc1c23 (configuration not stated)"
label = "N"

[[record]]
compound = "CN1CCN(C(=O)c2cc(-c3ccc4ncnc(N5CCc6cc(F)c(Cl)cc65)c4c3)cnc2N)CC1"
label = "Y"

[[record]]
compound = "CC/C=C1/C(=O)C=C[C@@H]1C/C=C\\CCCC(=O)OC"
label = "Y"

[[record]]
compound = "O=C1OCC2=C1C(c1cccc(F)c1)c1cc3c(cc1N2CCO)OCO3 (configuration not stated)"
label = "N"

[[record]]
compound = "COc1ccc(Cc2cnc(NC(=O)c3sc4ccccc4c3Cl)s2)cc1"
label = "N"

[[record]]
compound = "COc1ccc2nc(Cl)c(/C=C/C(=O)c3ccc(NC(=O)CSc4nnc(-c5ccc(Cl)c(Cl)c5)n4-c4ccccc4)cc3)cc2c1"
label = "N"

[[record]]
compound = "O=C(CN1C(=O)NC2NC(=O)NC21)N/N=C/c1ccc(Cl)cc1Cl (configuration not stated)"
label = "N"

[[record]]
compound = "Cn1c(=O)c2c(c3ccccc31)OC(N)=C(C#N)C21C(=O)c2ccccc2C1=O"
label = "N"

[[record]]
compound = "Cc1ccc(C(=O)c2ccc(CC(=O)N/N=C/c3ccc(O)cc3O)n2C)cc1"
label = "N"

[[record]]
compound = "CC1(C)CC[C@]2(C(=O)N3CCOCC3)CC[C@]3(C)C(=CC[C@@H]4[C@@]5(C)C/C(=C/c6ccncc6)C(=O)C(C)(C)[C@@H]5CC[C@]43C)[C@@H]2C1"
label = "Y"

[[record]]
compound = "CCCCCCC(=O)Nc1ncc(Cc2ccc(C)cc2)s1"
label = "N"

[[record]]
compound = "O=C1NC(=O)c2c1c1c3ccccc3[nH]c1c1oc3ccc(F)cc3c21"
label = "N"

[[record]]
compound = "O=C(Cn1nnc2ccccc21)N/N=C/c1ccccc1F"
label = "N"

[[record]]
compound = "COc1ccc(NC(=O)c2ccc(C(=O)Nc3ccc(OC)cc3OC)cc2)c(OC)c1"
label = "N"

[[record]]
compound = "CCOC(=O)c1c(-c2ccccc2)n2c(=O)cc(C)c3c(O)c(O)cc1c32"
label = "N"

[[record]]
compound = "COc1ccc(OC)c(-c2cn3nc(-c4c[nH]c5ccc(Br)cc45)sc3n2)c1"
label = "Y"

[[record]]
compound = "COc1ccc(C2=NN(C(=O)c3cc(OC)c(OC)c(OC)c3)C(c3ccc(N(C)C)cc3)C2)cc1 (configuration not stated)"
label = "N"

[[record]]
compound = "O=C1CCC(C(=O)NN(c2ccccc2)c2ccccc2)N1 (configuration not stated)"
label = "N"

[[record]]
compound = "COc1ccccc1-n1c(-c2cc(O)ccc2C)cn2c3c(=O)[nH]c(=O)n(C)c3nc12"
label = "N"

[[record]]
compound = "CCCn1c(=S)sc2c1nc(C)n1c(Nc3ccccc3)nnc21"
label = "N"

[[record]]
compound = "Cc1cc(C)cc(Nc2ccc([N+](=O)[O-])c(NCCN3CCOCC3)n2)c1"
label = "N"

[[record]]
compound = "COc1cc(/C=C\\c2cc(/C=C\\c3ccc(O)c(OC)c3)n(C(=O)CNc3ccc(Cl)cc3)n2)ccc1O"
label = "N"

[[record]]
compound = "COc1cc(/C=N/Nc2ccccc2F)cc(OC)c1OC"
label = "N"

[[record]]
compound = "O=C1/C(=C/c2ccccc2[N+](=O)[O-])COc2ccc(O)cc21"
label = "Y"

[[record]]
compound = "CCOC(=O)c1c(C)nc2ccccc2c1/C=C/c1ccc(OC)cc1"
label = "N"

[[record]]
compound = "N#C/C(=C\\c1ccc(Cl)cc1Cl)C(=O)Nc1ncc(Cc2ccc(Cl)c(Cl)c2)s1"
label = "N"


----------
System: PC-3 prostate
Experiment: NCI-60 one-dose screen, 48 h
Settings: 10 µM unless noted
The panel holds about 83,000 compounds, 20% with a hit somewhere; the sample as a whole holds those more often. Calls of active or inactive are those of the source. How the source made its calls: active means growth percent below 10; inactive means the rest.
Outcome codes: Y for active, N for inactive

[[record]]
molecule = "C=CCCC(=O)N1C=CC(=O)[C@H](O)[C@@H]1/C=C/c1ccccc1"
tested_target = "PC-3 prostate"
label = "N"

[[record]]
molecule = "CCN(CC)CCCC(C)Nc1ccc2cc(OC)ccc2n1 (stereo not drawn)"
tested_target = "PC-3 prostate"
label = "N"

[[record]]
molecule = "Cc1cc2nc(-c3c(-c4ccc(F)cc4)nc4sccn34)[nH]c2cc1C"
tested_target = "PC-3 prostate"
label = "N"

[[record]]
molecule = "COc1ccc(C/C(C)=C(/c2ccc(OCCN3CCCCCC3)cc2)c2ccc(OC(=O)NCc3ccccc3)cc2)cc1"
tested_target = "PC-3 prostate"
label = "N"

[[record]]
molecule = "C[Se]C(=O)CC1=C2C=C(F)C=CC2/C(=C\\c2ccc(S(C)=O)cc2)C1C (stereo not drawn)"
tested_target = "PC-3 prostate"
label = "N"

[[record]]
molecule = "Cc1ccc(-c2cc(C(=O)N3N=C(c4ccc(N)cc4)CC3c3ccc(Cl)cc3)c3ccccc3n2)cc1 (stereo not drawn)"
tested_target = "PC-3 prostate"
label = "N"

[[record]]
molecule = "CN1CCN(Cc2ccc(NC(=O)c3cncc(C#Cc4cnn5ccccc45)c3)cc2C(F)(F)F)CC1"
tested_target = "PC-3 prostate"
label = "Y"

[[record]]
molecule = "COc1cc(C(=O)c2c(-c3ccccc3)oc3c(OC)cccc23)cc(OC)c1O"
tested_target = "PC-3 prostate"
label = "N"


----------
Test system: SF-295 CNS
Experiment: NCI-60 one-dose screen, 48 h (100 = growth as untreated, 0 = no growth, -100 = all killed)
Details: 10 µM unless noted
This is part of a sample that, as a whole, favours compounds with a hit. Of some 83,000 tested, about 20% had one in any assay.
The following compounds are listed with their measured growth values.
QUANTITY: growth (%)

[[record]]
compound = "COc1ccc(C/C(C)=C(/c2ccc(OCCN3CCCCCC3)cc2)c2ccc(OC(=O)NCc3ccccc3)cc2)cc1"
unit_of_measurement = "%"
measured_number = 98.2

[[record]]
compound = "COc1cc2c3c(n(CCCCNCCCn4c5c(c6cc(OC)c(OC)cc6c4=O)C(=O)c4cc6c(cc4-5)OCO6)c(=O)c2cc1OC)-c1cc2c(cc1C3=O)OCO2"
unit_of_measurement = "%"
measured_number = 99.9

[[record]]
compound = "COc1ccc(Cc2nnc(Nc3nc4ccccc4s3)s2)cc1"
unit_of_measurement = "%"
measured_number = 92.9

[[record]]
compound = "COP(=O)(OC)c1nnn(-c2cccc([N+](=O)[O-])c2)c1C"
unit_of_measurement = "%"
measured_number = 111

[[record]]
compound = "S=c1ssnc1-c1cccs1"
unit_of_measurement = "%"
measured_number = 78.3

[[record]]
compound = "CC/C=C\\C/C=C/C=C1/C(=O)C=C[C@@H]1C/C=C\\CCCC(=O)OC"
unit_of_measurement = "%"
measured_number = 81.8

[[record]]
compound = "CC1O[C@@H]2C[C@@](O)([C@H]1O)n1c3ccccc3c3c4c(c5c6ccccc6n2c5c31)C(=O)NC4=O (some centres not stated)"
unit_of_measurement = "%"
measured_number = 19.2

[[record]]
compound = "COc1cc2ncnc(Nc3ccc(F)c(Cl)c3)c2cc1OCC(=O)N1CCN(c2ccc(F)cc2)CC1"
unit_of_measurement = "%"
measured_number = 94.1

[[record]]
compound = "COc1ccc(-c2ccc(=O)oc2C#Cc2cc(OC)c(OC)c(OC)c2)cc1O"
unit_of_measurement = "%"
measured_number = -20.6

[[record]]
compound = "O=C1CCCc2nc3sc4c(=O)n(-c5ccccc5Cl)nnc4c3cc21"
unit_of_measurement = "%"
measured_number = 95.1

[[record]]
compound = "CCOC(=O)C1=C(C)N=C2SC=C(c3ccccc3)N2[C@H]1c1cn[nH]c1-c1ccc(Cl)cc1"
unit_of_measurement = "%"
measured_number = 41

[[record]]
compound = "S=c1[nH]c2cc(Cl)ccc2o1"
unit_of_measurement = "%"
measured_number = 99.2

[[record]]
compound = "COc1ccc(Cn2cc(C(=O)N=Nc3c(O)[nH]c4c(Cl)cccc34)nn2)cc1"
unit_of_measurement = "%"
measured_number = 109

[[record]]
compound = "COc1ccc(NC(=O)c2sc3nc4c(cc3c2N)CCCC4)cc1"
unit_of_measurement = "%"
measured_number = 8.64

[[record]]
compound = "CCn1cc(C(=O)N/N=C/c2ccc(Br)cc2)c(=O)c2cc(F)c(N3CCNC(C)C3)c(F)c21 (configuration not stated)"
unit_of_measurement = "%"
measured_number = 74.5

[[record]]
compound = "Cn1cc(-c2csc(-c3cn(C(=O)OC(C)(C)C)c4ccccc34)n2)c2ccnc(Cl)c21"
unit_of_measurement = "%"
measured_number = 62.4

[[record]]
compound = "CC(/C=C1\\SC(=S)N(CC(=O)NC(Cc2c[nH]c3ccccc23)C(=O)O)C1=O)=C\\c1ccccc1 (configuration not stated)"
unit_of_measurement = "%"
measured_number = 104

[[record]]
compound = "CCCCCCCCCCCCCCCCCCOc1ccccc1CC(=O)NCC[N+]1(C)CCOCC1"
unit_of_measurement = "%"
measured_number = 62.8

[[record]]
compound = "COc1cc(C(=O)c2c(-c3ccccc3)oc3c(OC)cccc23)cc(OC)c1O"
unit_of_measurement = "%"
measured_number = 2.85

[[record]]
compound = "CC1(C)CCC(S(=O)(=O)c2ccc3c(c2)/C(=N\\O)c2cc(S(=O)(=O)N4CCN(c5ccc(F)cc5O)CC4)ccc2-3)CC1"
unit_of_measurement = "%"
measured_number = -57.1

[[record]]
compound = "O=C(/C=C\\c1ccco1)/C=C/c1ccco1"
unit_of_measurement = "%"
measured_number = 101

[[record]]
compound = "C/C(=C(\\c1ccc(OCCN2CCCCCC2)cc1)c1ccc(OC(=O)Cc2ccccc2)cc1)c1ccc(Cl)cc1"
unit_of_measurement = "%"
measured_number = 3.77

[[record]]
compound = "NS(=O)(=O)c1ccc(N/C=C/C(=O)c2cc3ccccc3oc2=O)cc1"
unit_of_measurement = "%"
measured_number = 103

[[record]]
compound = "C[C@@H](CO)[C@@H]1CC[C@]2(C(=O)N3CCN(C)CC3)CC[C@]3(C)[C@H](CC[C@@H]4[C@@]5(C)CC[C@H](O)C(C)(C)[C@@H]5CC[C@]43C)[C@@H]12"
unit_of_measurement = "%"
measured_number = 90.4

[[record]]
compound = "O=C1/C(=C/c2ccccc2)CN(C(=O)c2cccnc2)C/C1=C\\c1ccccc1"
unit_of_measurement = "%"
measured_number = -8.61

[[record]]
compound = "CC(C)C[C@@H](C(=O)N[C@H](C(=O)OC1CCCC1)c1ccccc1)[C@H](O)C(=O)NO"
unit_of_measurement = "%"
measured_number = 60.8

[[record]]
compound = "CC(=O)Nc1c(Cl)cc(Cl)c2c1Cc1cc([N+](=O)[O-])ccc1-2"
unit_of_measurement = "%"
measured_number = 113

[[record]]
compound = "COc1cc(-c2nc3ccc(C)cc3[nH]2)ccc1OCC(=O)N=Nc1c(O)[nH]c2ccc(Cl)cc12"
unit_of_measurement = "%"
measured_number = -7.5

[[record]]
compound = "O=C1/C(=C/c2ccccc2[N+](=O)[O-])COc2ccc(O)cc21"
unit_of_measurement = "%"
measured_number = 81.1

[[record]]
compound = "CCN(CC)CCOc1nc2c3ccc(Cl)cc3nn2c2ccccc12"
unit_of_measurement = "%"
measured_number = 29

[[record]]
compound = "CCOC(=O)c1c(C)nc2ccccc2c1/C=C/c1ccc(OC)cc1"
unit_of_measurement = "%"
measured_number = 58.8

[[record]]
compound = "CCCCSCC(=O)c1ccccc1"
unit_of_measurement = "%"
measured_number = 105

